Tested on: U2OS
Assay: Multiplex assay against U2OS
Format: toxicity, cell-based
Settings: human, 48 h, 10 µM, compound concentration 10 uM, replicate 1
1 if Population Apoptotic (%) is below 80%. 0 if not; exact matches included in 0.

Examples with answers:
Here's an entry: `COc1cc(NC(=O)CCN2CCC(OC(=O)Nc3ccccc3-c3ccccc3)CC2)c(Cl)cc1CNC[C@H](O)c1ccc(O)c2[nH]c(=O)ccc12` . Is its Population Apoptotic (%) below 80%?
0

Here's an entry: `CN(C)CCCc1cc(C(=O)Nc2ccc(-c3ccncc3)cc2)ccc1O.Cl.Cl` . Is its Population Apoptotic (%) below 80%?
1

Here's an entry: Cl.Clc1ccc2nsnc2c1NC1=NCCN1 [TIZANIDINE HYDROCHLORIDE] . Is its Population Apoptotic (%) below 80%?
0

Here's an entry: `CC(=O)NCCc1c(Cc2ccccc2)[nH]c2ccccc12` . Is its Population Apoptotic (%) below 80%?
0

Here's an entry: `O=C(O)Cc1ccccc1Nc1c(Cl)cccc1Cl` . Is its Population Apoptotic (%) below 80%?
0

Further cases:
Here's an entry: `C[C@H](NC(=O)c1c(C(F)F)nn(C)c1Oc1cccc(C(F)(F)F)c1)c1ccc(C(=O)O)cc1` . Is its Population Apoptotic (%) below 80%?
0

Here's an entry: `Cc1nc2ccc(Oc3ccc(F)cc3)cc2c(=O)n1C[C@H]1CCCN(C(C)C)C1.Cl` . Is its Population Apoptotic (%) below 80%?
1

Here's an entry: `Cc1ccc(-c2ccc(F)cc2COc2ccc(CCC(=O)O)cc2)cc1` . Is its Population Apoptotic (%) below 80%?
0

Here's an entry: CN1CCN2c3ncccc3Cc3ccccc3C2C1 (centres undefined) . Is its Population Apoptotic (%) below 80%?
0

Here's an entry: `CCNC1(C(N)=O)CCN(c2ncnc3c2nc(-c2ccccc2Cl)n3-c2ccc(Cl)cc2)CC1` . Is its Population Apoptotic (%) below 80%?
0
